EXPERIMENTAL_SYSTEM: Solute carrier organic anion transporter family member 2B1 (Homo sapiens, UniProt O94956)
Sequence (O94956 whole entry): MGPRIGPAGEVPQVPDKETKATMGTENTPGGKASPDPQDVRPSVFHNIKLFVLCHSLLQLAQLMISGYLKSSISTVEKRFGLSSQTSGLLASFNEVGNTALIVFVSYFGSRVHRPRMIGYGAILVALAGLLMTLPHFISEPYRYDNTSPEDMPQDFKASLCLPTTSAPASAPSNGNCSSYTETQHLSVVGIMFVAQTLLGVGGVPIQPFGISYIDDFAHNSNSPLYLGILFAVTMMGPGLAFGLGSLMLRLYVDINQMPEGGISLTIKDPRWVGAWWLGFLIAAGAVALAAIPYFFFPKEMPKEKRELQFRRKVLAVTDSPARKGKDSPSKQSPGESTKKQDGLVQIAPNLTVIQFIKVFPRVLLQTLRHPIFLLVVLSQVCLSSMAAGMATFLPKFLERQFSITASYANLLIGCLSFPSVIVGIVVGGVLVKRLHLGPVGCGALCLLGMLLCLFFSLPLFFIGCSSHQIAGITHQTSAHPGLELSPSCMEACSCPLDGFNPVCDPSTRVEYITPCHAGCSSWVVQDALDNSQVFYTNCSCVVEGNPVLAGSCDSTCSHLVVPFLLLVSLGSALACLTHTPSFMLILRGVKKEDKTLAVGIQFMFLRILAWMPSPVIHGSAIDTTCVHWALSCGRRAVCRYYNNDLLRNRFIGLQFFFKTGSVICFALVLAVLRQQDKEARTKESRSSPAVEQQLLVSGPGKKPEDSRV
ASSAY_INFO: TP_TRANSPORTER: inhibition of glibenclamide uptake (glibenclamide: 10nM) in OATP2B1-expressing HEK293 cells
Type: functional, cell-based
Set-up: scale not given: the % may be the effect or the level left
Assign class by Activity: not lower than 40% means t; lower than 40% means f.

## Input # check: Activity of O=C1C[C@@H](c2ccc(O)cc2)Oc2cc(O)cc(O)c21 [NARINGENIN] is greater than or equal to 40%
## Output t

## Input What would you report for C[C@@H]1O[C@@H](O[C@H]2[C@H](Oc3cc(O)c4c(c3)O[C@H](c3ccc(O)cc3)CC4=O)O[C@H](CO)[C@@H](O)[C@@H]2O)[C@H](O)[C@H](O)[C@H]1O [NARINGIN] ?
## Output t

## Input Could you do the same for C/C(=C\COc1c2ccoc2cc2oc(=O)ccc12)CCC(O)C(C)(C)O (configuration not stated) [DIHYDROXYBERGAMOTTIN] , please?
## Output f

## Input COc1ccc(-c2cc(=O)c3c(OC)c(OC)c(OC)c(OC)c3o2)cc1 [TANGERETIN] , same question.
## Output f

## Input And COc1ccc(-c2cc(=O)c3c(OC)c(OC)c(OC)c(OC)c3o2)cc1OC [NOBILETIN] ?
## Output t

----------
Kindly state Activity for each of the entries shown.
EXPERIMENTAL_SYSTEM: OATP2B1 (Homo sapiens, UniProt O94956)
Sequence (O94956 whole entry): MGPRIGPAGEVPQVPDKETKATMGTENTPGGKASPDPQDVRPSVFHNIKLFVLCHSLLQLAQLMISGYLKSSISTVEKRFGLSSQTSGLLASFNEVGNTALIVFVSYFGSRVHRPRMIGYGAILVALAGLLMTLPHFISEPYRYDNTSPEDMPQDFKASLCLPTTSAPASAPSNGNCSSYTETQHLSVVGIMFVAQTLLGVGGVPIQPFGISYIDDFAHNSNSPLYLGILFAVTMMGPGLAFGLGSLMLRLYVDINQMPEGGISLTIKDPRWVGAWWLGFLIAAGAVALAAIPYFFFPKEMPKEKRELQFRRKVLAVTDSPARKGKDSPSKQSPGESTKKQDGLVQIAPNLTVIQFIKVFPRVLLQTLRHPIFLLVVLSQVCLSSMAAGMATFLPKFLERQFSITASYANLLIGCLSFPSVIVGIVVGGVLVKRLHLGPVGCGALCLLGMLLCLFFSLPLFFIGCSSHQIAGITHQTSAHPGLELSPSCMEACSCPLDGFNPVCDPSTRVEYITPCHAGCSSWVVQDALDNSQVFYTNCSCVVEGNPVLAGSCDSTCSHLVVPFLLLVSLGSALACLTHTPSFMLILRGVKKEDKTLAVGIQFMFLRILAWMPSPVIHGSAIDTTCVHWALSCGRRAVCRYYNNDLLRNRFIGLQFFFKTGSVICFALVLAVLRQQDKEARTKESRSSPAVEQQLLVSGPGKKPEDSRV
ASSAY_INFO: TP_TRANSPORTER: inhibition of Estrone-3-sulfate uptake (Estrone-3-sulfate: 10nM) in OATP2B1-expressing HEK293 cells
Format: functional, cell-based
Design: scale not given: the % may be the effect or the level left
MEASUREMENT_SETUP: HEK293 cells expressing OATP2B1, probe Estrone-3-sulfate (10 nM)
Write it as a number; the unit % goes unstated.

## Input Any idea what its Activity is? The compound is O=c1c(O)c(-c2ccc(O)c(O)c2)oc2cc(O)cc(O)c12 [QUERCETIN]
## Output 80

## Input Check COc1ccc(-c2cc(=O)c3c(OC)c(OC)c(OC)c(OC)c3o2)cc1 [TANGERETIN] too.
## Output 89

## Input What do you get for C/C(=C\COc1c2ccoc2cc2oc(=O)ccc12)CCC(O)C(C)(C)O (configuration not stated) [DIHYDROXYBERGAMOTTIN] ?
## Output 58

## Input Could you do the same for COc1ccc(-c2cc(=O)c3c(OC)c(OC)c(OC)c(OC)c3o2)cc1OC [NOBILETIN] , please?
## Output 40

## Input Try the compound CC(C)=CCC/C(C)=C/COc1c2ccoc2cc2oc(=O)ccc12 [BERGAMOTTIN]
## Output 40

## Input Request: O=C1C[C@@H](c2ccc(O)cc2)Oc2cc(O)cc(O)c21 [NARINGENIN]
## Output 72

## Input Queued: C[C@@H]1O[C@@H](O[C@H]2[C@H](Oc3cc(O)c4c(c3)O[C@H](c3ccc(O)cc3)CC4=O)O[C@H](CO)[C@@H](O)[C@@H]2O)[C@H](O)[C@H](O)[C@H]1O [NARINGIN]
## Output 61

Each recorded value in this set is attributed to ChEMBL document CHEMBL2074136.
